# key: entry, value: melting point

Solved entries (count: 2):
• O=C(/C=C/c1ccc(O)cc1)CC(=O)/C=C/c1cc(OCc2ccccc2)ccc1-c1ccccc1 = 172 to 178 °C
• COC(=O)c1ccccc1/C=C/C(=O)CC(=O)/C=C/c1ccc(O)cc1 = 145 to 150 °C

Annotate the compound O=C(/C=C/c1ccc(O)cc1)CC(=O)/C=C/c1ccccc1-n1cncn1 with its measured melting point. 186 to 192 °C

Annotate the compound CCOC(=O)c1cnnn1-c1ccccc1/C=C/C(=O)CC(=O)/C=C/c1ccc(O)cc1 with its measured melting point. 93 to 96 °C

Annotate the compound COc1cc(O)ccc1/C=C/C(=O)CC(=O)/C=C/c1cc(O)ccc1-c1ccccc1 with its measured melting point. 108 to 114 °C

Annotate the compound CN(C)c1ccc(/C=C/C(=O)CC(=O)/C=C/c2ccc(N(C)C)cc2[N+](=O)[O-])c([N+](=O)[O-])c1 with its measured melting point. 245 to 250 °C

Annotate the compound O=C(/C=C/c1cc(O)ccc1[N+](=O)[O-])CC(=O)CCc1ccc(O)cc1 with its measured melting point. 62 to 70 °C

Annotate the compound O=C(/C=C/c1cc(O)ccc1[N+](=O)[O-])CC(=O)/C=C/c1cc(O)ccc1[N+](=O)[O-] with its measured melting point. 253 to 262 °C

Annotate the compound CCOC(=O)c1cn(-c2ccccc2/C=C/C(=O)CC(=O)/C=C/c2ccc(O)cc2)nn1 with its measured melting point. 231 to 237 °C

Annotate the compound Nc1ccc(O)cc1/C=C/C(=O)CC(=O)/C=C/c1ccc(O)cc1 with its measured melting point. 186 to 192 °C
